# System: SW480
# method-summary: cell viability (CellTiter-Glo) relative to plate median (fraction of plate median); higher = more viable cells
# assay-conditions: 5 µM; treatment time 24 h; reporter: 7TFP
Catalogue of molecules with associated cell viability
Lab note: record the figure alone, no unit after it.

CC[C@H](C)[C@H](N)C1=N[C@H](C(=O)N[C@@H](CC(C)C)C(=O)N[C@H](CCC(=O)O)C(=O)N[C@H](C(=O)N[C@H]2CCCCNC(=O)[C@H](CC(N)=O)NC(=O)[C@@H](CC(=O)O)NC(=O)[C@H](Cc3cnc[nH]3)NC(=O)[C@@H](Cc3ccccc3)NC(=O)[C@H]([C@@H](C)CC)NC(=O)[C@@H](CCCN)NC2=O)[C@@H](C)CC)CS1: 0.992

Look at this molecule and give its reported cell viability. NC12CC3CC(CC(C3)C1)C2
1.04

Please look up its cell viability: COc1cc(/C=C/C(=O)O)cc(OC)c1OC
0.903

* * *

# Tested on: DLD1
# method-summary: cell viability (CellTiter-Glo) relative to plate median (fraction of plate median); higher = more viable cells
# assay-conditions: 5 µM; treatment time 24 h; reporter: 7TFP
quantity-name: cell viability
The response must contain the number and no unit.

Consider the reported cell viability for these compounds:
CC[C@]1(O)C[C@@H]2CN(CCc3c([nH]c4ccccc34)[C@@](C(=O)OC)(c3cc4c(cc3OC)N(C)[C@H]3[C@@](O)(C(=O)OC)[C@H](OC(C)=O)[C@]5(CC)C=CCN6CC[C@]43[C@@H]65)C2)C1: 0.879
CC(C)C(=O)Nc1ccc([N+](=O)[O-])c(C(F)(F)F)c1: 1.05
COc1cc(OC)c2c(c1Cl)O[C@@]1(C(=O)CC(=O)C[C@H]1C)C2=O: 1.02
CN(C)[C@@H]1C(O)=C(C(N)=O)C(=O)[C@@]2(O)C(O)=C3C(=O)c4c(O)ccc(Cl)c4[C@@](C)(O)[C@H]3C[C@@H]12: 1.05
CO[C@@]12[C@H](COC(N)=O)C3=C(C(=O)C(C)=C(N)C3=O)N1C[C@@H]1N[C@@H]12: 1.12

Fill in: cell viability of COC(=O)[C@@H]1OC(=O)C2OC23[C@@]1(C)CCC1[C@]2(C)C(C[C@H](O)[C@]13C)C(C)(C)[C@H](OC(C)=O)C[C@@H]2OC(C)=O (stereo partly drawn) [7beta-HYDROXY-7-DESACETOXYKHIVORINIC ACID, METHYL ESTER] is ___
1.01

Look up cell viability: CO[C@H]1C[C@H](O[C@H]2[C@H](C)[C@@H](O[C@@H]3O[C@H](C)C[C@H](N(C)C)[C@H]3O)[C@@H](C)C[C@@]3(CO3)C(=O)[C@H](C)[C@@H](O)[C@@H](C)[C@@H](C)OC(=O)[C@@H]2C)O[C@@H](C)[C@@H]1O
0.97

* * *

# Test system: DLD1
# method-summary: TCF/Wnt firefly luciferase reporter signal relative to plate median (fraction of plate median); higher = higher Wnt reporter signal
# assay-conditions: 5 µM; treatment time 24 h; reporter: 7TFP
# cutoff 0.9 applies to TCF/Wnt firefly luciferase reporter signal; >= gives Condition met, < gives Condition not met

Consider the worked cases shown below.
CC(=O)Oc1cccc(O)c1: Condition met
O=C(OC[C@H]1O[C@@H](OC(=O)c2cc(O)c(O)c(OC(=O)c3cc(O)c(O)c(O)c3)c2)[C@H](OC(=O)c2cc(O)c(O)c(OC(=O)c3cc(O)c(O)c(O)c3)c2)[C@@H](OC(=O)c2cc(O)c(O)c(OC(=O)c3cc(O)c(O)c(O)c3)c2)[C@@H]1OC(=O)c1cc(O)c(O)c(OC(=O)c2cc(O)c(O)c(O)c2)c1)c1cc(O)c(O)c(OC(=O)c2cc(O)c(O)c(O)c2)c1: Condition not met
Cn1c(=O)[nH]c2[nH]cnc2c1=O: Condition met
NC(=O)N1c2ccccc2C=Cc2ccccc21: Condition met

Check this compound for TCF/Wnt firefly luciferase reporter signal at or above 0.9: CO[C@@H]1[C@H](O)[C@@H](C)O[C@@H](OC[C@H]2[C@@H]3O[C@H]3/C=C/C(=O)[C@@](C)(O)C[C@H](C)[C@H](O[C@@H]3O[C@H](C)C[C@H](OC)[C@H]3O)[C@@H](C)/C=C/C(=O)O[C@@H]2C)[C@@H]1OC [Chalcomycin]
Condition not met
